Tested on: 217524-143-R1-J4-PDC spheroids with HUVEC/MSC, viability
PROTOCOL TEXT: Anticancer human tumor 217524-143-R1-J4-PDC patient-derived pancreatic carcinoma cell line growth inhibition [CLK]; active = viability on the fitted dose curve at most 10% of control; inactive = the rest
TEST SETTINGS: second compound 0.0316 µM; first compound 0.316 µM
Source text: A high-throughput screen of multi-cell type tumor spheroids was designed to identify active combinations of […] and targeted small molecules. Complex spheroids include a stromal component modeled by human endothelial cells (HUVEC) and fibroblasts modeled by human mesenchymal stem cells (MSCs). […] Compounds. […] If the clinical Cmax for an agent had not been determined, the highest concentration tested was 10 microM. […]
Outcome codes: t (active), f (inactive)

[
  {
    "COMPOUND": "Nc1ccn(C2OC(CO)C(O)C2(F)F)c(=O)n1 (stereo not drawn) + CN1CCN(c2cc(C(=O)Nc3cc4cc(-c5cnn(C)c5)ccc4cn3)ccn2)CC1",
    "TESTED SYSTEM": "217524-143-R1-J4-PDC spheroids with HUVEC/MSC, viability",
    "LABEL CLASS": "f"
  },
  {
    "COMPOUND": "C=C(F)C(=O)N1CCN(c2nc(OCC3CCCN3C)nc3c2CCN(c2cccc4cccc(Cl)c24)C3)CC1CC#N (stereo not drawn) + CNC(=O)c1ccc(Nc2nc(OC3CCCC3)c3c(-c4ccc5nc(C)oc5c4)c[nH]c3n2)c(OC)c1",
    "TESTED SYSTEM": "217524-143-R1-J4-PDC spheroids with HUVEC/MSC, viability",
    "LABEL CLASS": "f"
  },
  {
    "COMPOUND": "COc1c(OCCCN2CCOCC2)ccc2c3n(c(=NC(=O)c4cnc(N)nc4)nc12)CCN3 + CN1CCN(c2cc(C(=O)Nc3cc4cc(-c5cnn(C)c5)ccc4cn3)ccn2)CC1",
    "TESTED SYSTEM": "217524-143-R1-J4-PDC spheroids with HUVEC/MSC, viability",
    "LABEL CLASS": "t"
  }
]

----------
The following compounds are shown together with reported viability, T/C values.
Test system: 217524-143-R1-J4-PDC spheroids with HUVEC/MSC, viability
PROTOCOL TEXT: Anticancer human tumor 217524-143-R1-J4-PDC cell line growth inhibition [CLK];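 also: spheroids exposed to agents for seven days before reading; 100% = DMSO vehicle control viability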
TEST SETTINGS: second compound 0.0316 µM; first compound 0.00316 µM; active compounds read low

[
  {
    "COMPOUND": "COc1c(OCCCN2CCOCC2)ccc2c3n(c(=NC(=O)c4cnc(N)nc4)nc12)CCN3 + CN1CCN(c2cc(C(=O)Nc3cc4cc(-c5cnn(C)c5)ccc4cn3)ccn2)CC1",
    "viability, T/C": "72.3%"
  },
  {
    "COMPOUND": "CCc1c2c(nc3ccc(O)cc13)-c1cc3c(c(=O)n1C2)COC(=O)[C@]3(O)CC + CNC(=O)c1ccc(Nc2nc(OC3CCCC3)c3c(-c4ccc5nc(C)oc5c4)c[nH]c3n2)c(OC)c1",
    "viability, T/C": "53.2%"
  },
  {
    "COMPOUND": "CCc1c2c(nc3ccc(O)cc13)-c1cc3c(c(=O)n1C2)COC(=O)[C@]3(O)CC + CN1CCN(c2cc(C(=O)Nc3cc4cc(-c5cnn(C)c5)ccc4cn3)ccn2)CC1",
    "viability, T/C": "46.2%"
  }
]
